- PROCEDURE DETAILS: The compound was tested for % urinary recovery in marmosets at the dose of 3 mg/kg
- Assay type: ADME, organism-based
- Design: dose 3 mg/kg
- ASSAY CONDITIONS: callithrix, urine, read-out: Recovery
For each record, write down the corresponding dose excreted.
Give bare numbers, in %.

Example entries and their recorded answers appear below.
CC(C)(O/N=C(\C(=O)N[C@@H]1C(=O)N2C(C(=O)O)=C(CCNC(=O)c3cc(O)c(O)c(Br)c3)CSC12)c1csc(N)n1)C(=O)O (some centres undefined) = 17.5
CC(C)(O/N=C(\C(=O)N[C@@H]1C(=O)N2C(C(=O)O)=C(CNC(=O)c3ccc(O)c(O)c3)CSC12)c1csc(N)n1)C(=O)O (some centres undefined) = 44.8
CCn1cc(C(=O)NCC2=C(C(=O)O)N3C(=O)[C@@H](NC(=O)/C(=N\OC(C)(C)C(=O)O)c4csc(N)n4)C3SC2)c(=O)c2cc(O)c(O)cc21 (some centres undefined) = 13.9

Now, please, on to the next compound.
Given the compound CC(C)(O/N=C(\C(=O)N[C@@H]1C(=O)N2C(C(=O)O)=C(CNC(=O)c3cc(Cl)c(O)c(O)c3Cl)CSC12)c1csc(N)n1)C(=O)O (some centres undefined) , what is its reported dose excreted?
16.2

* * *

For each of the compounds below, state its AUC.
- PROCEDURE DETAILS: The compound was evaluated for area under the curve in marmosets
- Type: ADME
- ASSAY CONDITIONS: callithrix, in vivo
Numbers only, in mg/h/L.

For every listed record, write down its AUC.
1. CCn1cc(C(=O)NCC2=C(C(=O)O)N3C(=O)[C@@H](NC(=O)/C(=N\OC(C)(C)C(=O)O)c4csc(N)n4)C3SC2)c(=O)c2cc(O)c(O)cc21 (some centres not stated)
2. CC(C)(O/N=C(\C(=O)N[C@@H]1C(=O)N2C(C(=O)O)=C(CNC(=O)c3cc(Cl)c(O)c(O)c3Cl)CSC12)c1csc(N)n1)C(=O)O (some centres not stated)

[238.5, 461]

Please state AUC for every compound in the list that follows.
1. CCN(CC1=C(C(=O)O)N2C(=O)[C@@H](NC(=O)/C(=N\OC(C)(C)C(=O)O)c3csc(N)n3)C2SC1)C(=O)c1cc(O)c(O)c(Cl)c1 (some centres not stated)
2. CC(C)(O/N=C(\C(=O)N[C@@H]1C(=O)N2C(C(=O)O)=C(CNC(=O)c3ccc(O)c(O)c3)CSC12)c1csc(N)n1)C(=O)O (some centres not stated)
3. CC(C)(O/N=C(\C(=O)N[C@@H]1C(=O)N2C(C(=O)O)=C(CNC(=O)c3cc(O)c(O)c(Cl)c3)CSC12)c1csc(N)n1)C(=O)O (some centres not stated)

1. 16.4
2. 27.2
3. 638.3

Please state AUC for every compound in the list that follows.
1. CC(C)(O/N=C(\C(=O)N[C@@H]1C(=O)N2C(C(=O)O)=C(CCOC(=O)c3cc(O)c(O)c(Br)c3)CSC12)c1csc(N)n1)C(=O)O (some centres not stated)
2. CCO/N=C(\C(=O)N[C@@H]1C(=O)N2C(C(=O)O)=C(CNC(=O)c3cc(O)c(O)c(Br)c3)CSC12)c1csc(N)n1 (some centres not stated)

[67.7, 16.97]
